Target or test system: Full length human recombinant HDAC6 protein (Homo sapiens, UniProt Q9UBN7)
Sequence (Q9UBN7 whole entry): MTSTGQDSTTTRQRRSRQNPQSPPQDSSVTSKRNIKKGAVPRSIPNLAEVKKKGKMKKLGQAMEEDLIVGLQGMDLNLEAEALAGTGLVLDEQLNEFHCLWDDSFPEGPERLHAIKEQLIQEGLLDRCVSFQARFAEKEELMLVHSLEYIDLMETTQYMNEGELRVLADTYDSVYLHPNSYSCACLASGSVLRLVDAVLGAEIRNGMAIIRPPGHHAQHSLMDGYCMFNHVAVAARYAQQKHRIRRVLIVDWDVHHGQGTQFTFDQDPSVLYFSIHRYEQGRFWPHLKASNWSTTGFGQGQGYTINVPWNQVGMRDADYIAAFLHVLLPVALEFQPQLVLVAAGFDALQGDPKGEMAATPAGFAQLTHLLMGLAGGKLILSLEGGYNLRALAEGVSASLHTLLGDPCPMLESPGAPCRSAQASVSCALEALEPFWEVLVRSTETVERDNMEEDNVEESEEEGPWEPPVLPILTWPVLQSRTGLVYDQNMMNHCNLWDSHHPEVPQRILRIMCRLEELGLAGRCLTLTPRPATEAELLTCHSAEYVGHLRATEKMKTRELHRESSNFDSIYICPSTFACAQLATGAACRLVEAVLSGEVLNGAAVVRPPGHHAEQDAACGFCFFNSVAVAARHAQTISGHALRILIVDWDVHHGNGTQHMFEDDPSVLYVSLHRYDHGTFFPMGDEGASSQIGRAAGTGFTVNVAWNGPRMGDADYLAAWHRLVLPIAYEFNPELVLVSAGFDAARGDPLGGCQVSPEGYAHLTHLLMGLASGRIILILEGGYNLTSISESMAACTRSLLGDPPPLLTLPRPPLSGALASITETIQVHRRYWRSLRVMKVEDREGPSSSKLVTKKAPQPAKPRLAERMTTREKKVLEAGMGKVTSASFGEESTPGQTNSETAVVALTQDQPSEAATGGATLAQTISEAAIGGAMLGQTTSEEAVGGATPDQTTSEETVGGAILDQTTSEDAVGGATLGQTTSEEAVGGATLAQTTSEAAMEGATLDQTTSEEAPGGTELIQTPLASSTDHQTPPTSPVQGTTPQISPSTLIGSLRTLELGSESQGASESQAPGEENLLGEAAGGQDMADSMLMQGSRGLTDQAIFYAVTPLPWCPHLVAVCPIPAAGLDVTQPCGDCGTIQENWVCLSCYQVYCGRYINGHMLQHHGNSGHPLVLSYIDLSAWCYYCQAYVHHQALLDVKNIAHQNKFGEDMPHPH
Assay text: In vitro histone deacetylase assay: enzymatic HDAC6 electrophoretic mobility shift assay
Stated conditions: 1 nM enzyme, 2 μM peptide substrate RHKK(Ac)-NH2, 25° C., 12 concentrations; read-out: Inhibitory Concentration (IC50) Values against HDAC6, Activity Range
pIC50: −log10 of the molar value.
Readout label: pIC50

CC(C)[C@@H]1C[C@@H](C(=O)N2Cc3ccc(C(=O)NO)cc3OC[C@@H]2C)CCO1	≥ 7.00
Cc1nc(CC(=O)N2CCOc3cc(C(=O)NO)ccc3C2)cs1	6.30 to 7.00
O=C(NO)c1ccc2c(c1)OCCN(C(=O)Cn1cccc(C(F)(F)F)c1=O)C2	6.30 to 7.00
O=C(NO)c1ccc2c(c1)OCCN(C(=O)C1(c3cccc(Cl)c3)CC1)C2	≥ 7.00
C[C@H]1c2ccc(C(=O)NO)cc2OCCN1C(=O)[C@H]1CCCOC1	≥ 7.00
O=C(NO)c1ccc2c(c1)OCCN(C(=O)C1Oc3ccccc3C13CCNCC3)C2 (stereo not drawn)	6.30 to 7.00
COC1(C(=O)N2Cc3ccc(C(=O)NO)cc3OC[C@@H]2C)CC1	≥ 7.00
C[C@H]1c2ccc(C(=O)NO)cc2OCCN1C(=O)[C@H]1CCOC1	≥ 7.00

Input line: Quick one: pIC50 for O=C(NO)c1ccc2c(c1)OCCN(C(=O)C1CCS(=O)(=O)CC1)C2 ?
Output line: ≥ 7.00

Input line: For the compound shown here, C[C@H]1CN(C(=O)C2(C)CCC2)Cc2ccc(C(=O)NO)cc2O1 , give the reported pIC50.
Output line: 6.30 to 7.00

Input line: Could you share which pIC50 value was measured for COc1cccc(C2(C(=O)N3CCOc4cc(C(=O)NO)ccc4C3)CC2)c1 ?
Output line: ≥ 7.00

Input line: Report pIC50 for CC(C)[C@H]1c2ccc(C(=O)NO)cc2OCCN1C(=O)C1CCOCC1 please.
Output line: < 6.30
